The origin of these recorded values is patent US20260125375A1.

Let's look at some compounds and their measured Ki.
# target entity: C-CBL (residues 46-435) (Homo sapiens, UniProt P22681)
# Construct: Purified CBL-B (residues 36-427) and C-CBL (residues 46-435) proteins from baculovirus-infected insect cells; made in house; host or cells: baculovirus-infected insect cells
# method summary: Ligand Displacement Assay (LDA), HTRF competitive binding against BODIPY-labeled fluorescent tracer, C-CBL
# condition context: geometric mean of the number of tests, read-out: C-CBL Ki (nM) GMean

compound: CC(NC1CNC1)c1nc(C(F)(F)F)cc2c(-c3cccc(C4(Cc5nncn5C)COC4)c3)n[nH]c12 (single isomer, unassigned) [Example C27]
Ki [nM]: 76
--
compound: CN(C)Cc1nc(C(F)(F)F)cc2c(-c3cccc([C@H](c4nncn4C)C4CCC4)c3)n[nH]c12
Ki [nM]: 258
--
compound: C[C@H](N)c1nc(C(F)(F)F)cc2c(-c3cccc([C@H](c4nncn4C)C4CCC4)c3)n[nH]c12
Ki [nM]: 136
--
compound: CC(=O)NCC(C)c1nc(C(F)(F)F)cc2c(-c3cccc([C@H](c4nncn4C)C4CCC4)c3)n[nH]c12 (single isomer, unassigned) [Example M5]
Ki [nM]: 527
--
compound: C[C@@H](N[C@@H]1COC[C@@H]1O)c1nc(C(F)(F)F)cc2c(-c3cccc([C@H](c4nncn4C)C4CCC4)c3)n[nH]c12 (single isomer, unassigned)
Ki [nM]: 62.3
--
compound: C[C@@H](c1nc(C(F)(F)F)cc2c(-c3cccc(C4(Cc5nncn5C)COC4)c3)n[nH]c12)N1CC(F)C1 (single isomer, unassigned)
Ki [nM]: 75.1
--
compound: Cn1cnnc1[C@@H](c1cccc(-c2n[nH]c3ncc(Cl)cc23)c1)C1CCC1
Ki [nM]: 279
--
compound: CC(C)[C@H]1CN(C)CCN1Cc1nc(C(F)(F)F)cc2c(-c3cccc([C@H](c4nncn4C)C4CCC4)c3)n[nH]c12
Ki [nM]: 10.2
--
compound: CNCc1nc(C(F)(F)F)cc2c(-c3cccc(C4(Cc5nncn5C)COC4)c3)n[nH]c12
Ki [nM]: 134
--
compound: Cn1cnnc1CC1(c2cccc(-c3n[nH]c4c(CN5CC[C@H](F)C5)nc(C(F)(F)F)cc34)c2)COC1
Ki [nM]: 111
--
compound: Cn1cnnc1[C@@H](c1cccc(-c2n[nH]c3c(CN[C@H]4CC[C@H]4O)nc(C(F)(F)F)cc23)c1)C1CCC1 (single isomer, unassigned)
Ki [nM]: 36.1
--
compound: Cn1cnnc1CC1(c2cccc(-c3n[nH]c4cnc(Cl)cc34)c2)COC1
Ki [nM]: 142
--
compound: C[C@@H](NC1CCC1)c1nc(C(F)(F)F)cc2c(-c3cccc(C4(Cc5nncn5C)COC4)c3)n[nH]c12
Ki [nM]: 49.3
--
compound: C[C@@H](c1nc(C(F)(F)F)cc2c(-c3cccc([C@H](c4nncn4C)C4CCC4)c3)n[nH]c12)N1CC[C@H](O)C1 (single isomer, unassigned) [Example D71]
Ki [nM]: 13
--
compound: C[C@H](N[C@@H]1CC[C@H]1O)c1nc(C(F)(F)F)cc2c(-c3cccc([C@H](c4nncn4C)C4CCC4)c3)n[nH]c12 (single isomer, unassigned)
Ki [nM]: 9.9
--
compound: C[C@@H](N[C@H]1C[C@@H](F)C1)c1nc(C(F)(F)F)cc2c(-c3cccc([C@H](c4nncn4C)C4CCC4)c3)n[nH]c12 (single isomer, unassigned)
Ki [nM]: 53.5
--
compound: C[C@@H](c1nc(C(F)(F)F)cc2c(-c3cccc(C4(Cc5nncn5C)COC4)c3)n[nH]c12)N1CC(F)(F)C1 (single isomer, unassigned)
Ki [nM]: 80.3
--
compound: CC[C@@H](c1cccc(-c2n[nH]c3c([C@@H](C)NC[C@H](C)O)nc(C(F)(F)F)cc23)c1)c1nncn1C (single isomer, unassigned)
Ki [nM]: 1160
--
compound: Cn1cnnc1[C@@H](c1cccc(-c2n[nH]c3c(CN[C@@H]4CC[C@H](O)C4)nc(C(F)(F)F)cc23)c1)C1CCC1
Ki [nM]: 59.9
--
compound: Cn1cnnc1[C@@H](c1cccc(-c2n[nH]c3c(CN4CCC4)nc(C(F)(F)F)cc23)c1)C1CCC1
Ki [nM]: 198
--
compound: Cn1cnnc1CC1(c2cccc(-c3n[nH]c4c(CN5CC(F)(F)C5)nc(C(F)(F)F)cc34)c2)COC1
Ki [nM]: 185
--
compound: Cn1cnnc1[C@@H](c1cccc(-c2n[nH]c3c(C4CCCN4)nc(C(F)(F)F)cc23)c1)C1CCC1 (single isomer, unassigned) [Example L3]
Ki [nM]: 159
--
compound: C[C@H](c1nc(C(F)(F)F)cc2c(-c3cccc(C4(Cc5nncn5C)COC4)c3)n[nH]c12)N1CCC(F)(F)C1 (single isomer, unassigned)
Ki [nM]: 21
--
compound: C[C@@H](N[C@@H]1CCOC1)c1nc(C(F)(F)F)cc2c(-c3cccc([C@H](c4nncn4C)C4CCC4)c3)n[nH]c12 (single isomer, unassigned)
Ki [nM]: 69.7
